Molecular target: human secretin receptor (hSCTR) (human, UniProt P47872 23-440)
Sequence (P47872 23-440): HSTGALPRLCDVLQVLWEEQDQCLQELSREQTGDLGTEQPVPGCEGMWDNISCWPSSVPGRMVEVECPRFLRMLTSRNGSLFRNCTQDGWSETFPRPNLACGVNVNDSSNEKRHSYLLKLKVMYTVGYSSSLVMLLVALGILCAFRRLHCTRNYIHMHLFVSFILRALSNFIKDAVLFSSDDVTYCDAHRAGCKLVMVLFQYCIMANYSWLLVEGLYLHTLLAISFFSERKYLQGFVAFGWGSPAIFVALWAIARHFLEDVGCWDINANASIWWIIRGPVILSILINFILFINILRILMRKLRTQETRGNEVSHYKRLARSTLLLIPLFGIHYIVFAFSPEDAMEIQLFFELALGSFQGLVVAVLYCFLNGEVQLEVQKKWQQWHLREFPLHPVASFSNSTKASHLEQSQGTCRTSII
Assay: cell-based or functional assay
Numbered stars: 1 amine (or outer) side, 2 acyl side, 3 side chain; on linkers, the order of the positions; unused ones are H or OH. Square brackets hold non-standard residues; d marks the D form. Side chains are listed from the residue outwards. Ends that are not written are not given here. * marks the point of attachment. C20 diacid = O=C(O)CCCCCCCCCCCCCCCCCCC(=O)*; γGlu = O=C(O)[C@H](CCC(=O)[*:2])N[*:1]; AEEA = NCCOCCOCC(=O)O; Aib = CC(C)(N)C(=O)O
parameter: pEC50 hSCTR

# lookup: pEC50 hSCTR of H[Aib]EGTFTSDVSFLK([AEEA-AEEA-γGlu-C20 diacid])EEA[Aib]LQRFLEHLV-NH2 [SEQ ID NO: 173]
6.8 -log M

# lookup: pEC50 hSCTR of H[Aib]EGTFTSDVSYLK([AEEA-AEEA-γGlu-C20 diacid])EEAATQRFLEHLV-NH2 [SEQ ID NO: 30]
6.6 -log M

# lookup: pEC50 hSCTR of H[Aib]EGTFTSDVSYLKEEA[Aib]LQRFLEELV-NH2 (not fully specified (residue 14)) [SEQ ID NO: 151]
6.9 -log M

# lookup: pEC50 hSCTR of H[Aib]EGTFTSDVSRLK([AEEA-AEEA-γGlu-C20 diacid])ETAASQRFLEHLV-NH2 [SEQ ID NO: 71]
6 -log M

# lookup: pEC50 hSCTR of H[Aib]EGTFTSDVSRLK([AEEA-AEEA-γGlu-C20 diacid])ETAA[Aib]QRFLEHLV-NH2 [SEQ ID NO: 85]
5.8 -log M
